Please provide measured GI50 for the entries that follow.
Tested on: SK-OV-3 ovarian
Test: NCI tumour cell line growth inhibition, 48 h

Endpoint output: GI50 of "CCCCCCCCCCCCCCCCCC1=NCCN1CCOC1=C(Cl)C(=O)c2ccccc2C1=O" . Value?
1.93 µM

// returns reported GI50 for input "CC1=C2[C@@H](CC1)[C@]1(C)O[C@@](c3ccccc3)(C[C@H]1OC(=O)CO)[C@H]2OC(=O)/C=C/c1ccccc1"
19 µM

// query GI50 value for entry "CCCCCCCCCCCCCCCCCC[n+]1ccc2c(C)c3c(c(C)c2c1)c1cc(O)ccc1n3CC"
1.84 µM

Bench note: what GI50 did "COc1ccc(-c2cc(-c3ccc(C)cc3)nc3nc(=S)[nH]c(N)c23)cc1" show?
40.4 µM

Value lookup for GI50; key = CN1C(=O)N(C)C2C1NN=c1s/c(=C\c3ccc(C(F)(F)F)cc3)c(=O)n12 (stereo not given)
3.96 µM

###

System: MDA-N
Test: NCI tumour cell line growth inhibition, 48 h
Give TGI for every item shown.

For the molecule "O=C(NC1=C(Cl)C(=O)c2ccccc2C1=O)c1ccc(F)cc1" , what TGI is on record?
12.9 µM

Would you mind telling me what TGI value was observed for COc1c(Br)cc2c(c1OC)C(Br)CCC(Br)(Br)C2=O (stereo not drawn) ?
0.684 µM

GET /values?readout=TGI&item= "NNC(=O)CS(=O)(=O)Nc1ncccn1"
> 100 µM

Which TGI is reported for this molecule? "CC1=NN(C(=O)c2ccncc2)C(=O)C1"
> 100 µM

Could you share which TGI value was measured for "Nc1n[n+](CC(=O)c2ccccc2)c2sc(-c3ccccc3)nn12" ?
> 100 µM

So what's the measured TGI for this one? "COC(=O)[C@H](CCSC)NC(=O)N[C@H](C)c1ccccc1"
> 100 µM

Fill in the blank: the reported TGI of "CCOC(=O)/C(C=Nc1c(C)n(C)n(-c2ccccc2)c1=O)=C(/C)O" is ____.
> 100 µM

What value of TGI has been reported for the following molecule? "COc1cc2c3c(c1)CCCN3CCC2"
> 10 µM

Using the record for "NC(N)=NCC[C@H](NC(=O)OCCCCCn1ccc(=O)[nH]c1=O)C(=O)O" , report its TGI.
> 100 µM

What value of TGI has been recorded for this entry: "CC1(C)C=Cc2c(cc(O)c3c(=O)c4cc(Cl)ccc4[nH]c23)O1"
8.58 µM

Please look up its TGI: "Cc1cc(C)c(-n2[nH]c(=O)n(C)c2=O)c(C)c1"
> 100 µM

Could you share which TGI value was measured for "C[C@]12CC[C@@H]3c4cc(OCC(F)(F)F)c(O)cc4CC[C@H]3[C@@H]1CC[C@@H]2O" ?
1.29 µM

# lookup: TGI of "Cn1c(=O)c2[nH]c(CCNC(=O)c3ccccc3)nc2n(C)c1=O"
> 100 µM

Entry under review: "CCCCn1c(N)c(-c2nc3ccccc3o2)sc1=S" . Reported TGI?
69.1 µM

// lookup TGI for CCOC(=O)C1C(c2ccc3c(c2)OCO3)c2c([nH][nH]c2=O)CC1(C)O (stereo not drawn)
> 100 µM

Given OCC12C3C4C5C3C1C5C42 (stereo not drawn) , state its recorded TGI.
> 100 µM

Data request, read-out TGI, for O=C(O)C12C3CCC(CC3)C1(C(=O)O)C1CCC2C1 (stereo not drawn)
> 100 µM

Would you mind telling me what TGI value was observed for CC(=O)c1ccc2c(c1)CC1(C2)Cc2cc3c(cc2C1=O)CCC3 (stereo not drawn) ?
32.9 µM

###

Tested on: NCI-H522 lung
Assay: NCI tumour cell line growth inhibition, 48 h
Measure: TGI

Provide the documented TGI with NCI-H522 lung as the system for "O=C(CCl)NNC1=Nc2ccc(Cl)cc2SC1"
1.85 µM

Quick check: TGI on NCI-H522 lung, item "CC(C)NCCCn1c(Sc2cc3c(cc2I)OCO3)nc2c(N)ncnc21" ?
> 100 µM

Request: TGI, test system NCI-H522 lung, entry "C=CC[C@@H](N)C(=O)N(C)[C@@H](C)[C@@H](O)c1ccccc1"
44.2 µM

// lookup TGI | system=NCI-H522 lung | key= "CCOc1ccccc1C(=O)N1CCN(c2cc(Cl)cc(Cl)c2)CC1"
0.358 µM

Tell me reported TGI for C/C=C1\CN2CCc3c([nH]c4ccccc34)C2CC1C(=O)OC (stereo unspecified) , tested with NCI-H522 lung.
> 322 µM

Write down the reported TGI of CS(=O)(=O)OCC1CN(S(C)(=O)=O)c2cc(O)ccc21 (stereo unspecified) , test system: NCI-H522 lung.
2.94 µM

Which TGI is reported with NCI-H522 lung for this entry: "CC(=O)CN(Cc1cc(C)c2c(c1)c1ccccc1n2Cc1ccccc1)S(=O)(=O)c1ccc(C)cc1" ?
> 100 µM

Item: O=C(O)C12C3CCC(CC3)C1(C(=O)O)C1CCC2C1 (stereo unspecified) Test system: NCI-H522 lung Read-out: TGI Value: ?
> 100 µM

So what TGI did COc1ccc(CC2(O)C3CC4CCC2C4C3)cc1 (stereo unspecified) get with NCI-H522 lung?
> 100 µM

Write down the reported TGI of O=C1OC(Cc2ccccc2)(N2CCCC2=O)C1c1ccccc1 (stereo unspecified) , test system: NCI-H522 lung.
> 100 µM

Could you share what TGI was measured for CCOC(=O)C1C(=S)NC(=O)C1C#N (stereo unspecified) , tested on NCI-H522 lung?
> 100 µM

###

Test system: M14 melanoma
Test: NCI tumour cell line growth inhibition, 48 h
Measure: GI50

Need GI50, item "CC1=C2[C@@H](CC1)[C@]1(C)O[C@@](c3ccccc3)(C[C@H]1OC(=O)CO)[C@H]2OC(=O)/C=C/c1ccccc1"
15.8 µM

GET /values?readout=GI50&item= CN1C(=O)N(C)C2C1NN=c1s/c(=C\c3ccc(C(F)(F)F)cc3)c(=O)n12 (centres undefined)
1.36 µM

Could you tell me which GI50 is on file for "O=C(O)CN1CCN(CC(=O)O)CC(=O)[O][Hg][O]C(=O)C1" ?
16.4 µM

Query: GI50; subject: "CCCCCCCCCCCCCCCCCC[n+]1ccc2c(C)c3c(c(C)c2c1)c1cc(O)ccc1n3CC"
1.43 µM

I am curious: what GI50 value has been reported for OCc1ccc(N2CCCC2c2ccccc2)cc1Cl (centres undefined) ?
5.24 µM

Consider the molecule shown here: "Fc1ccc(/C=N/n2c(-c3ccc(F)c(Cl)c3)nn(CNc3ccccc3C(F)(F)F)c2=S)cc1" What is its recorded GI50?
43.1 µM

For "O=C(OCc1ccc2ccccc2n1)c1cn(C2CC2)c2cc(N3CCN(Cc4ccc5ccccc5n4)CC3)c(F)cc2c1=O" , what is its reported GI50?
> 56.3 µM

// lookup GI50 for "O=C(NN1C(=O)CSC12CCCCC2)c1[nH]c2ccc(Br)cc2c1-c1ccccc1"
27 µM

I have this molecule here, "COc1ccc(-c2cc(-c3ccc(C)cc3)nc3nc(=S)[nH]c(N)c23)cc1" , and I need its recorded GI50.
19.1 µM

###

Test system: SW-620 colon
Experiment: NCI tumour cell line growth inhibition, 48 h
Please go through the items and note down their GI50.

Would you kindly share the measured GI50 for "CN1CCN(C(=O)c2cc(-c3ccc4ncnc(N5CCc6cc(F)c(Cl)cc65)c4c3)cnc2N)CC1" ?
315 nM

What value of measured GI50 is listed for "Cc1ccc(/C=N\NC(=O)c2[nH]c3ccc(F)cc3c2-c2ccccc2)cc1" ?
42.8 nM

// returns reported GI50 for input "O=C(NN1C(=O)CSC12CCCCC2)c1[nH]c2ccc(Br)cc2c1-c1ccccc1"
34700 nM

Would you kindly share the measured GI50 for CC(=O)OC12C=C(C)C(C(C)C1)C1C(=O)N(CCN3CCOCC3)C(=O)C12 (stereo not given) ?
> 100000 nM

I am curious: what GI50 value has been reported for O=C1OCC2=C1C(c1ccccc1)c1cc3c(cc1N2)OCO3 (stereo not given) ?
37 nM

###

Exercise: for every item that follows, state its recorded log10(TGI).
Test system: MDA-MB-231 breast
Assay: NCI tumour cell line growth inhibition, 48 h
Friendly reminder: values = log10 of TGI, unit µM.

Look up log10(TGI) for this compound: "CCCCn1c(N)c(-c2nc3ccccc3o2)sc1=S"
1.54

# query: log10(TGI) of entry C1CCC([PH+](C2CCCCC2)C2CCCCC2[PH+](C2CCCCC2)C2CCCCC2)CC1.[Au].[CH-]1CCCCC1CC1CCCC[N-]1 (centres undefined)
-0.16

Which log10(TGI) value belongs to "O=c1[nH]cc(-c2c[nH]c3ccccc23)nc1-c1c[nH]c2ccccc12" ?
1.95

# get_value(readout='log10(TGI)', item= "COc1cc2c(cc1OCCCn1c(-c3ccccn3)nc3ccccc31)N=C[C@@H]1CCCN1C2=O" )
1.13

Which log10(TGI) is listed for CCN(CC)CC1CCCCN1CC(=O)N1c2ccccc2C(=O)Nc2cccnc21 (centres undefined) ?
1.88

For the compound COC1/C=C/C(C)C(C(C)C(OC)C(C)CCC(=O)C(C)C(C/C=C/N(C)C=O)OC)OC(=O)C=CC2OC2(C)CC(OC)C(OC)C2=CC(=O)O[C@@H](C(C)C(OC)CC(OC)/C=C/C(C)C(O)C1)[C@H]2O (some centres undefined) , what log10(TGI) is on record?
-1.71

If you can, please state the reported log10(TGI) value of "COc1cc2c3c(n(C)c(=O)c2cc1OC)-c1cc2c(cc1/C3=C\CCCCN1C(=O)c3ccccc3C1=O)OCO2" .
1.58

Look at this compound and give its reported log10(TGI). "O=C1/C(=C/c2ccccc2[N+](=O)[O-])Cc2ccccc21"
0.79

Name the reported log10(TGI) value associated with the compound "CN(C)CCCN1c2ccccc2Sc2ccc3ccccc3c21"
1.14

Please report the recorded log10(TGI) for "CO/N=C(/C)c1ccc(NC(=O)CSc2nnc(-c3ccncc3)n2-c2ccccc2)cc1" .
0.94
